biological target: GlunN1/GluN2A glutamate receptors (Homo sapiens (Human), UniProt Q05586+Q12879); assay: Whole-cell patch clamp of mammalian cells (Ionworks Barracuda), positive allosteric modulation, GluN1/GluN2A; format: cell-based
Sequence (Q12879 23-1464, other chains not shown): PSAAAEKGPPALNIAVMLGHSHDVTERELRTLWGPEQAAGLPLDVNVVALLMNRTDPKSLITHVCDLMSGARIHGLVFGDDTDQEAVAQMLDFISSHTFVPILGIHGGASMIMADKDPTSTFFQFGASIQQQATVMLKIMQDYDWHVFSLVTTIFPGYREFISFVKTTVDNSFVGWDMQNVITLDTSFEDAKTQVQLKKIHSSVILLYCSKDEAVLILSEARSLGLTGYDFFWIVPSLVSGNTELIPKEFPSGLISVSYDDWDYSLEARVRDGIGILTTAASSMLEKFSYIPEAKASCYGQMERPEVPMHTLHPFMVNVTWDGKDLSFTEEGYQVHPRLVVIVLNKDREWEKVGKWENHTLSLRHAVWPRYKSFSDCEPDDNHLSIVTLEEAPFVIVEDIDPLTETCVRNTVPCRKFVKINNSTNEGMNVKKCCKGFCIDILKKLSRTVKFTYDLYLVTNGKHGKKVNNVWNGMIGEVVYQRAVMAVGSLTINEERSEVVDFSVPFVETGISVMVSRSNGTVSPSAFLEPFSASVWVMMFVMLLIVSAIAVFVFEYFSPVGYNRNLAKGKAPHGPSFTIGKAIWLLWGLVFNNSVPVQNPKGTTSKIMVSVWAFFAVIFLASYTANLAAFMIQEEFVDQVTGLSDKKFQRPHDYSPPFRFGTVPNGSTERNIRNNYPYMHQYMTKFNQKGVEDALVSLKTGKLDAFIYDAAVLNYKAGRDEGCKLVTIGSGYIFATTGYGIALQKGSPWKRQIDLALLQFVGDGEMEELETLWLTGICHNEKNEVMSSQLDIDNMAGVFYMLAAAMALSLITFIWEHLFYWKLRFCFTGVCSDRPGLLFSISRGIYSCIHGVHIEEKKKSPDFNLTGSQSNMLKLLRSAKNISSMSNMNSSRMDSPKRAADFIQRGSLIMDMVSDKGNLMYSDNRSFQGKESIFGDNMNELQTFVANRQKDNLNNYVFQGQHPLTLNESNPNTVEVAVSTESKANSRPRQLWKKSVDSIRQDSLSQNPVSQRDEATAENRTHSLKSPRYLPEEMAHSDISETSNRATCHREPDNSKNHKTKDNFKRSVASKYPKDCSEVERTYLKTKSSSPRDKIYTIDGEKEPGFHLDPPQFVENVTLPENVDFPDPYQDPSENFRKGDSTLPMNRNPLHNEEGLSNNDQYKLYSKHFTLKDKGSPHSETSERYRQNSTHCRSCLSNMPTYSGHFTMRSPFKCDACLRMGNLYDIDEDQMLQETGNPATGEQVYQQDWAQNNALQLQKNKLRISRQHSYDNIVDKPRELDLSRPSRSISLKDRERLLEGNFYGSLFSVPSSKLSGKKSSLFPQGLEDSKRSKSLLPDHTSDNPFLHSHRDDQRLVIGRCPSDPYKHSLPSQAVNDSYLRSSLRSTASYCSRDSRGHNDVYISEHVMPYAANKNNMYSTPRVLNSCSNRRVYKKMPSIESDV
OBSERVED_PROPERTY: EC50 (µM)
Enter your answer as a number in µM; do not include the unit.

Example entries begin here.
Quick one: EC50 for CC[C@]1(O)CC[C@@]2(C)C(=CC[C@H]3[C@@H]4CC[C@H]([C@H](C)CCC(O)Cc5ccccc5)[C@@]4(C)CC[C@@H]32)C1 (stereo partly drawn) [Compound 6010] ?
1.1

Quick one: EC50 for CC[C@]1(O)CC[C@H]2C(=CC[C@@H]3[C@@H]2CC[C@]2(C)[C@@H]([C@H](C)CC[C@@H](O)C(C)(C)C)CC[C@@H]32)C1 [Compound 8379] ?
0.0734

For the next question, use this molecule.
Quick one: EC50 for C[C@H](O)CC[C@@H](C)[C@H]1CC[C@H]2[C@@H]3CC[C@H]4C[C@](O)(C(F)(F)F)CC[C@]4(C)[C@H]3CC[C@]12C [Compound 6] ?
0.248

###

Biological target: GlunN1/GluN2A glutamate receptors (Homo sapiens (Human), UniProt Q05586+Q12879)
Assay: Whole-cell patch clamp of mammalian cells (Ionworks Barracuda), positive allosteric modulation, GluN1/GluN2A
Type: cell-based
Settings: HEK293 cells; % potentiation of current elicited with EC20 L-glutamate and 30 μM glycine; read-out: Avg Emax 2A (%)
Description: The measurements were performed using Ion Works Barracuda platform following this procedure: Electrophysiological Procedures: • a) Intracellular solution (mM): 50 mM CsCl, 90 mM CsF, 2 mM MgCl2, 5 mM EGTA, 10 mM HEPES. Adjust to pH 7.2 with CsOH. • b) Extracellular solution, HB-PS (composition in mM): NaCl, 137; KCl, 1.0; CaCl2), 5; HEPES, 10; Glucose, 10; pH adjusted to 7.4 with NaOH (refrigerated until use). • c) Holding potential: −70 mV, potential during agonist/PAM application: −40 mV. […]
Form field: Emax (one value per entry).
Enter your answer as a number in %; do not include the unit.

Example entries begin here.
Quick one: Emax for CC[C@]1(O)CC[C@H]2C(=CC[C@@H]3[C@@H]2CC[C@]2(C)[C@@H]([C@H](C)CCC[C@](C)(O)C(F)(F)F)CC[C@@H]32)C1 ?
190

Quick one: Emax for CC[C@]1(O)CC[C@H]2[C@@H](CC[C@@H]3[C@@H]2CC[C@]2(C)[C@@H]([C@H](C)CCCO)CC[C@@H]32)C1 ?
49.9

Quick one: Emax for CC[C@]1(O)CC[C@H]2[C@@H](CC[C@@H]3[C@@H]2CC[C@]2(C)[C@@H]([C@H](C)CC[C@H](O)C(C)C)CC[C@@H]32)C1 ?
382

Quick one: Emax for CC[C@]1(O)CC[C@@]2(C)C(=CC[C@H]3[C@@H]4CC[C@H]([C@H](C)CCC(O)c5ccccn5)[C@@]4(C)CC[C@@H]32)C1 (some centres unmarked) ?
198

Others:
Quick one: Emax for CC[C@]1(O)CC[C@@]2(C)C(=CC[C@H]3[C@@H]4CC[C@H]([C@H](C)CC[C@@H](O)c5cccnc5)[C@@]4(C)CC[C@@H]32)C1 ?
156

Quick one: Emax for CC[C@]1(O)CC[C@H]2[C@@H](CC[C@@H]3[C@@H]2CC[C@]2(C)[C@@H]([C@H](C)CCC(O)C(C)C)CC[C@@H]32)C1 (some centres unmarked) ?
811

Quick one: Emax for CC[C@]1(O)CC[C@H]2[C@@H](CC[C@@H]3[C@@H]2CC[C@]2(C)[C@@H]([C@H](C)CC[C@@H](O)C(C)C)CC[C@@H]32)C1 ?
467

Quick one: Emax for CC[C@]1(O)CC[C@@]2(C)C(=CC[C@H]3[C@@H]4CC[C@H]([C@H](C)CCC(O)c5ccccc5)[C@@]4(C)CC[C@@H]32)C1 (some centres unmarked) ?
302

Recorded values, source patent US11149054B2.
